molecules and their reported EC50
Test system: Respiratory syncytial virus (RSV) strain A2
Experiment: RSV antiviral assay (HEp-2, 96 well)
Assay type: cell-based
Conditions: read-out: EC50 RSV HEP2 96; HEp-2 cells, RSV A2, MOI=4, 4 days, 96 well; Table 3
measured_quantity: EC50 (nM)

molecule: CC(=O)O[C@H]1[C@@H](OC(C)=O)[C@](C#N)(c2ccc3c(N)ncnn23)O[C@@H]1COP(=O)(N[C@@H](C)C(=O)OC1CC2(CCC2)C1)Oc1cccc2ccccc12 (single isomer, unassigned) [Example 83b]
measured_quantity: EC50
recorded_measurement: 7.32

molecule: CCC(=O)O[C@H]1[C@@H](OC(=O)CC)[C@](C#N)(c2ccc3c(N)ncnn23)O[C@@H]1COP(=O)(N[C@@H](C)C(=O)OC1CC2(CCC2)C1)Oc1cccc2ccccc12 (single isomer, unassigned) [Example 87b]
measured_quantity: EC50
recorded_measurement: 8.3

molecule: CC(C)C(=O)O[C@H]1[C@@H](OC(=O)C(C)C)[C@](C#N)(c2ccc3c(N)ncnn23)O[C@@H]1COP(=O)(N[C@@H](C)C(=O)OC1CCC1)Oc1cccc2ccccc12 (single isomer, unassigned) [Example 55b]
measured_quantity: EC50
recorded_measurement: 7.44

molecule: CCC(CC)COC(=O)[C@H](C)NP(=O)(OC[C@H]1O[C@@](C#N)(c2ccc3c(N)ncnn23)[C@H](OC(C)=O)[C@@H]1OC(C)=O)Oc1cccc2ccccc12 (single isomer, unassigned) [Example 78a]
measured_quantity: EC50
recorded_measurement: 65.2

molecule: C[C@H](NP(=O)(OC[C@H]1O[C@@](C#N)(c2ccc3c(N)ncnn23)[C@H](O)[C@@H]1O)Oc1cccc2ccccc12)C(=O)OC1CCC1 (single isomer, unassigned) [Intermediate P7a-1]
measured_quantity: EC50
recorded_measurement: 224

molecule: CC(C)C(=O)O[C@H]1[C@@H](OC(=O)C(C)C)[C@](C#N)(c2ccc3c(N)ncnn23)O[C@@H]1COP(=O)(N[C@@H](C)C(=O)OC1CCC1)Oc1ccc(C2CC2)cc1 (stereo partly drawn) [Example 52b]
measured_quantity: EC50
recorded_measurement: 25.4

molecule: CC(=O)O[C@H]1[C@@H](OC(C)=O)[C@](C#N)(c2ccc3c(N)ncnn23)O[C@@H]1COP(=O)(N[C@@H](C)C(=O)OC1CCC1)Oc1ccc(C2CC2)cc1 (single isomer, unassigned) [Example 53b]
measured_quantity: EC50
recorded_measurement: 21.2

molecule: CC(C)C(=O)O[C@H]1[C@@H](OC(=O)C(C)C)[C@](C#N)(c2ccc3c(N)ncnn23)O[C@@H]1COP(=O)(N[C@@H](C)C(=O)OC1CCCCCCC1)Oc1ccc(C(C)(C)C)cc1 (single isomer, unassigned) [Example 77b]
measured_quantity: EC50
recorded_measurement: 198

molecule: CC(C)C(=O)O[C@H]1[C@@H](OC(=O)C(C)C)[C@](C#N)(c2ccc3c(N)ncnn23)O[C@@H]1COP(=O)(N[C@@H](C)C(=O)O[C@H]1CC[C@H](C(F)(F)F)CC1)Oc1ccc(C(C)(C)C)cc1 (single isomer, unassigned) [Example 85b]
measured_quantity: EC50
recorded_measurement: 80.5

###

Here the recorded pEC50 is given for each entry.
Tested on: Respiratory syncytial virus (RSV) strain A2
Assay: RSV antiviral assay (HEp-2, 96 well)
Type: cell-based
Details: human respiratory syncytial virus, HEp-2, 96 h, read-out: EC50 RSV HEP2 96, HEp-2 cells, RSV A2, MOI=4, 4 days, 96 well; Table 3
pEC50: −log10 of the molar value.
measured_quantity: pEC50

compound: CC(C)C(=O)O[C@H]1[C@@H](OC(=O)C(C)C)[C@](C#N)(c2ccc3c(N)ncnn23)O[C@@H]1COP(=O)(N[C@@H](C)C(=O)OC1CCC1)Oc1ccc(C2CC2)cc1 (stereo partly shown) [Example 52a]
recorded_measurement: 7.69

compound: CC(C)C(=O)O[C@H]1[C@@H](OC(=O)C(C)C)[C@](C#N)(c2ccc3c(N)ncnn23)O[C@@H]1COP(=O)(N[C@@H](C)C(=O)OCC1CCC1)Oc1ccc(C(C)(C)C)cc1 (stereo partly shown)
recorded_measurement: 7.19

compound: COC(C)(C)CCOC(=O)[C@H](C)NP(=O)(OC[C@H]1O[C@@](C#N)(c2ccc3c(N)ncnn23)[C@H](OC(=O)C(C)C)[C@@H]1OC(=O)C(C)C)Oc1ccccc1 (stereo partly shown)
recorded_measurement: 7.53

compound: CC(C)C(=O)O[C@H]1[C@@H](OC(=O)C(C)C)[C@](C#N)(c2ccc3c(N)ncnn23)O[C@@H]1COP(=O)(N[C@@H](C)C(=O)O[C@H]1CC[C@H](C(F)(F)F)CC1)Oc1ccc(C(C)(C)C)cc1 (single isomer, unassigned) [Example 85a]
recorded_measurement: 7.20

compound: CC(C)C(=O)O[C@H]1[C@@H](OC(=O)C(C)C)[C@](C#N)(c2ccc3c(N)ncnn23)O[C@@H]1COP(=O)(N[C@@H](C)C(=O)OC1CCCCCCC1)Oc1ccc(C(C)(C)C)cc1 (single isomer, unassigned) [Example 77a]
recorded_measurement: 6.71

compound: CCOCCOCCOC(=O)[C@H](C)NP(=O)(OC[C@H]1O[C@@](C#N)(c2ccc3c(N)ncnn23)[C@H](O)[C@@H]1O)Oc1ccc(C(C)(C)C)cc1 (stereo partly shown)
recorded_measurement: 6.25

compound: CC(C)COC(=O)[C@H](C)NP(=O)(OC[C@H]1O[C@@](C#N)(c2ccc3c(N)ncnn23)[C@H](OC(=O)C(C)C)[C@@H]1OC(=O)C(C)C)Oc1ccc(C(C)(C)C)cc1 (stereo partly shown)
recorded_measurement: 7.78

compound: C[C@H](NP(=O)(OC[C@H]1O[C@@](C#N)(c2ccc3c(N)ncnn23)[C@H](O)[C@@H]1O)Oc1ccccc1)C(=O)OCCC(C)(C)C (stereo partly shown) [Intermediate P8a]
recorded_measurement: 7.69

compound: C[C@H](NP(=O)(OC[C@H]1O[C@@](C#N)(c2ccc3c(N)ncnn23)[C@H](O)[C@@H]1O)Oc1ccc(C(C)(C)C)cc1)C(=O)OC1CC2(CCC2)C1 (stereo partly shown)
recorded_measurement: 6.47

compound: CC(C)C(=O)O[C@H]1[C@@H](OC(=O)C(C)C)[C@](C#N)(c2ccc3c(N)ncnn23)O[C@@H]1COP(=O)(N[C@@H](C)C(=O)OC1CC2(CCC2)C1)Oc1ccc(C(C)(C)C)cc1 (stereo partly shown)
recorded_measurement: 7.21

compound: CC(C)C(=O)O[C@H]1[C@@H](OC(=O)C(C)C)[C@](C#N)(c2ccc3c(N)ncnn23)O[C@@H]1COP(=O)(N[C@@H](C)C(=O)OC1CCOCC1)Oc1ccc(C(C)(C)C)cc1 (stereo partly shown)
recorded_measurement: 7.69

compound: COC(C)(C)COC(=O)[C@H](C)NP(=O)(OC[C@H]1O[C@@](C#N)(c2ccc3c(N)ncnn23)[C@H](OC(=O)C(C)C)[C@@H]1OC(=O)C(C)C)Oc1ccc(C(C)(C)C)cc1 (stereo partly shown)
recorded_measurement: 7.95

compound: COC(C)(C)COC(=O)[C@H](C)N[P@](=O)(OC[C@H]1O[C@@](C#N)(c2ccc3c(N)ncnn23)[C@H](OC(=O)CC(C)C)[C@@H]1OC(=O)CC(C)C)Oc1ccccc1
recorded_measurement: 6.96

compound: CCCCCCOC(=O)[C@H](C)NP(=O)(OC[C@H]1O[C@@](C#N)(c2ccc3c(N)ncnn23)[C@H](O)[C@@H]1O)Oc1ccc(C(C)(C)C)cc1 (stereo partly shown)
recorded_measurement: 7.13

compound: CCC(C)(C)COC(=O)[C@H](C)NP(=O)(OC[C@H]1O[C@@](C#N)(c2ccc3c(N)ncnn23)[C@H](O)[C@@H]1O)Oc1ccccc1 (stereo partly shown) [Intermediate D9]
recorded_measurement: 7.18

compound: CCC(=O)O[C@H]1[C@@H](OC(=O)CC)[C@](C#N)(c2ccc3c(N)ncnn23)O[C@@H]1COP(=O)(N[C@@H](C)C(=O)OC1CCC1)Oc1ccc(C2CC2)cc1 (single isomer, unassigned) [Example 54a]
recorded_measurement: 7.88

compound: COC(C)(C)CCOC(=O)[C@H](C)NP(=O)(OC[C@H]1O[C@@](C#N)(c2ccc3c(N)ncnn23)[C@H](O)[C@@H]1O)Oc1ccccc1 (stereo partly shown)
recorded_measurement: 6.54

compound: CC(C)C(=O)O[C@H]1[C@@H](OC(=O)C(C)C)[C@](C#N)(c2ccc3c(N)ncnn23)O[C@@H]1COP(=O)(N[C@@H](C)C(=O)OC1CC2(CCC2)C1)Oc1cccc2ccccc12 (single isomer, unassigned) [Example 86a]
recorded_measurement: 7.67

compound: CCOC(=O)[C@H](C)NP(=O)(OC[C@H]1O[C@@](C#N)(c2ccc3c(N)ncnn23)[C@H](OC(=O)CC)[C@@H]1OC(=O)CC)Oc1ccc(C(C)(C)C)cc1 (stereo partly shown)
recorded_measurement: 7.56

###

Assay: CC50 assay (cytopathology in HEp-2 cells)
Assay type: cell-based
Conditions: human, HEp-2 cells, 4 days, CellTiter-Glo; Table 1; read-out: RSV CC50
Experimental: The cytopathology of compounds in HEp-2 cells is determined in the following manner. HEp-2 cells are suspended in DMEM+GlutaMAX (supplemented with 10% FBS and 1% Penicillin/Streptomycin) and seeded into 96 well plates (3×10^3/well). After a 4-hour incubation at 37° C.+5% CO2, three-fold serial dilutions of compounds are added to each well using an HP D300e digital dispenser. […] Compound-induced cytopathic effect is then assessed by measuring luminescence signal using and Envision plate reader. […]

compound: CCOC(=O)[C@H](C)NP(=O)(OC[C@H]1O[C@@](C#N)(c2ccc3c(N)ncnn23)[C@H](O)[C@@H]1O)Oc1ccc(C(C)(C)C)cc1 (stereo partly drawn) [Example 17]
CC50 at 4 days, µM: 20.8
//
compound: CCC(=O)O[C@H]1[C@@H](OC(=O)CC)[C@](C#N)(c2ccc3c(N)ncnn23)O[C@@H]1CO[P@@](=O)(N[C@@H](C)C(=O)OC)Oc1ccccc1 [Example 5]
CC50 at 4 days, µM: 9.54
//
compound: CC(C)OC(=O)[C@H](C)N[P@](=O)(OC[C@H]1O[C@@](C#N)(c2ccc3c(N)ncnn23)[C@H](OC(=O)C(C)C)[C@@H]1OC(=O)C(C)C)Oc1ccccc1 [Example 7]
CC50 at 4 days, µM: 12.6
